# Test system: Rattus norvegicus
# measurementNotes: Effect on heart rate in anesthetized Wistar rat assessed as number of Q-T-intervals at 40 mg/kg, ip after 15 mins by electrocardiography
# Assay type: functional
# measurementParameters: route intraperitoneal
Entries and their Activity values follow.
property: Activity

compound	property	testResult
O=C(CO[N+](=O)[O-])NNC(=O)c1ccc(NCC(O)CN2C(=O)/C(=C/C=C/c3ccccc3)S/C2=N/c2ccccc2)cc1 (stereo not drawn)	Activity	74.6
COc1cc(/C=C2\S/C(=N/c3ccccc3)N(CC(O)CNc3ccc(C(=O)NNC(=O)CO[N+](=O)[O-])cc3)C2=O)cc(OC)c1OC (stereo not drawn)	Activity	79.6
O=C(CO[N+](=O)[O-])NNC(=O)c1ccc(NCC(O)CN2C(=O)/C(=C/c3ccccc3O)S/C2=N/c2ccccc2)cc1 (stereo not drawn)	Activity	73.2
Cc1ccc(/C=C2\S/C(=N/c3ccccc3)N(CC(O)CNc3ccc(C(=O)NNC(=O)CO[N+](=O)[O-])cc3)C2=O)cc1 (stereo not drawn)	Activity	72.8
O=C(CO[N+](=O)[O-])NNC(=O)c1ccc(NCC(O)CN2C(=O)/C(=C/c3ccc(O)cc3)S/C2=N/c2ccccc2)cc1 (stereo not drawn)	Activity	74.8
O=C(CO[N+](=O)[O-])NNC(=O)c1ccc(NCC(O)CN2C(=O)/C(=C/c3cccc([N+](=O)[O-])c3)S/C2=N/c2ccccc2)cc1 (stereo not drawn)	Activity	71.4
O=C(CO[N+](=O)[O-])NNC(=O)c1ccc(NCC(O)CN2C(=O)/C(=C/c3ccccc3)S/C2=N/c2ccccc2)cc1 (stereo not drawn)	Activity	81.8
O=C(CO[N+](=O)[O-])NNC(=O)c1ccc(NCC(O)CN2C(=O)/C(=C/c3ccc(F)cc3)S/C2=N/c2ccccc2)cc1 (stereo not drawn)	Activity	67.8

###

# Tested on: Rattus norvegicus
# measurementNotes: Effect on heart rate in anesthetized Wistar rat assessed as number of QRS complex at 40 mg/kg, ip after 15 mins by electrocardiography
# Assay type: functional
# measurementParameters: route intraperitoneal

molecule	Activity
Cc1ccc(/C=C2\S/C(=N/c3ccccc3)N(CC(O)CNc3ccc(C(=O)NNC(=O)CO[N+](=O)[O-])cc3)C2=O)cc1 (centres undefined)	23.2
O=C(CO[N+](=O)[O-])NNC(=O)c1ccc(NCC(O)CN2C(=O)/C(=C/C=C/c3ccccc3)S/C2=N/c2ccccc2)cc1 (centres undefined)	21
O=C(CO[N+](=O)[O-])NNC(=O)c1ccc(NCC(O)CN2C(=O)/C(=C/c3ccccc3)S/C2=N/c2ccccc2)cc1 (centres undefined)	19.4
O=C(CO[N+](=O)[O-])NNC(=O)c1ccc(NCC(O)CN2C(=O)/C(=C/c3cccc([N+](=O)[O-])c3)S/C2=N/c2ccccc2)cc1 (centres undefined)	21.4

###

Attribute: Activity
# System: Rattus norvegicus
# measurementNotes: Cardiovascular effect in anaesthetized Wistar rat assessed as mean arterial pressure at 40 mg/kg, ip after 60 mins
# Format: functional, Artery
# measurementParameters: route intraperitoneal

molecule	Activity
COc1cc(/C=C2\S/C(=N/c3ccccc3)N(CC(O)CNc3ccc(C(=O)NNC(=O)CO[N+](=O)[O-])cc3)C2=O)cc(OC)c1OC (centres undefined)	81.25 mmHg
CC(C)NCC(O)COc1ccc(CC(N)=O)cc1 (centres undefined) [ATENOLOL]	69.93 mmHg
O=C(CO[N+](=O)[O-])NNC(=O)c1ccc(NCC(O)CN2C(=O)/C(=C/c3ccc(O)cc3)S/C2=N/c2ccccc2)cc1 (centres undefined)	77.31 mmHg
O=C(CO[N+](=O)[O-])NNC(=O)c1ccc(NCC(O)CN2C(=O)/C(=C/C=C/c3ccccc3)S/C2=N/c2ccccc2)cc1 (centres undefined)	90.58 mmHg
